# procedure-text: Cycloheximide Counterscreen for Small Molecule Inhibitors of Shiga Toxin; note: read at 38.3 µM for the half of the compounds with a filed dose; 0% is about no effect
# condition-set: cell reporter, cycloheximide protein synthesis inhibition counterscreen; hits give high values
The whole screen tested about 300,000 compounds, of which about 37,000 (12%) were called active. The sample as a whole holds a higher share of actives than the screen did.
measured-metric: max response (%)
One number for each entry, in %.

Below, 5 molecules whose answers are already recorded.
Cc1ccccc1N1CC(C(=O)Nc2nnc(SCCC3OCCO3)s2)CC1=O (stereo not given)    0.819
O=C(c1cccnc1)N(c1cc2sc(=O)oc2c2ccccc12)S(=O)(=O)c1ccccc1    -2.05
Cc1ccc(C(=O)O)cc1-c1ccc(/C=C2\SC(=O)N(CC(=O)Nc3ccc4c(c3)OCO4)C2=O)o1    -2.31
CCn1cc(C(=O)NCC(=O)NC(C)(C)CO)c(=O)c2cc3c(cc21)OCO3    1.3
CC(NC(=S)NC1CCCCC1)C(c1ccccc1)N1CCOCC1 (stereo not given)    0.505

Please supply max response for each of the following items, keeping them in order.
1. COc1ccc(N2C(=O)NC(NS(=O)(=O)c3ccc(Cl)cc3)(C(F)(F)F)C2=O)cc1 (stereo not given)
2. N#Cc1c(-c2ccccc2)c(-c2ccccc2)n[nH]c1=O
3. O=C(O)C1=NN(c2c(F)c(F)cc(F)c2F)C(=O)CC1
4. CCOc1ccc(CN2CCNC(=O)C2CC(=O)NCCCC2CCCC2)cc1 (stereo not given)

Response:
[-5.1, 0.547, -4.21, 16.3]

Query: Look up and state reported max response for Cc1cnc(C(=O)N2CCCC(N3CCN(c4ccccc4F)CC3)C2)cn1 (stereo not given)
Response: 7.17
